molecular target: HLA-B*39:01; test: IEDB peptide-MHC binding, purified MHC/competitive/fluorescence; filed as Kd, often an IC50 or EC50 that approximates it; bounds were set here for any values at or beyond the usual limits of such assays; details: source organism: Mycobacterium tuberculosis variant bovis BCG str. Pasteur 1173P2
PARAMETER: Kd

In plain terms, `DEGFHAATV` has a documented Kd of ≥ 20 µM

---

target: HLA-B*46:01; test: IEDB peptide-MHC binding, purified MHC/competitive/fluorescence; filed as Kd, often an IC50 or EC50 that approximates it; bounds were set here for any values at or beyond the usual limits of such assays; conditions: source organism: Francisella tularensis subsp. tularensis FSC198
PARAMETER: Kd

get_value(item= `RSFPEWDYI` , readout=Kd) returns ≥ 20 µM

---

molecular target: HLA-B*40:01; experiment: IEDB peptide-MHC binding, purified MHC/direct/fluorescence; filed as Kd, often an IC50 or EC50 that approximates it; bounds were set here for any values at or beyond the usual limits of such assays; settings: source organism: Influenza A virus (A/Hong Kong/514/97(H5N1))
PARAMETER: Kd

Recorded Kd (sequence `VSDGGPNLY` ): ≥ 20 µM

---

target: HLA-A*69:01; assay: IEDB peptide-MHC binding, purified MHC/competitive/fluorescence; filed as Kd, often an IC50 or EC50 that approximates it; bounds were set here for any values at or beyond the usual limits of such assays; details: source organism: Vaccinia virus Copenhagen
PARAMETER: Kd

Form field Kd for item `YTDLTYQSF` on HLA-A*69:01: ≥ 20 µM

---

target: HLA-B*08:01; assay: IEDB peptide-MHC binding, purified MHC/direct/fluorescence; filed as Kd, often an IC50 or EC50 that approximates it; bounds were set here for any values at or beyond the usual limits of such assays; settings: source organism: Vibrio parahaemolyticus
PARAMETER: Kd

GET /value?item= `EVDEGSDMM` &field=Kd returns ≥ 20 µM

---

biological target: HLA-A*24:03; test: IEDB peptide-MHC binding, purified MHC/direct/fluorescence; filed as Kd, often an IC50 or EC50 that approximates it; bounds were set here for any values at or beyond the usual limits of such assays; conditions: source organism: Orthohantavirus tulaense
PARAMETER: Kd

Record `RRAYSGKQY` , field Kd: ≥ 20 µM

---

molecular target: HLA-A*02:03; experiment: IEDB peptide-MHC binding, purified MHC/competitive/radioactivity; filed as Kd, often an IC50 or EC50 that approximates it; bounds were set here for any values at or beyond the usual limits of such assays; settings: source organism: Dengue virus 3 China/80-2/1980
PARAMETER: Kd

So for `CLMMMLPATL` , the logged Kd turned out to be 6.85 nM

---

biological target: HLA-C*06:02; experiment: IEDB peptide-MHC binding, purified MHC/competitive/fluorescence; filed as Kd, often an IC50 or EC50 that approximates it; bounds were set here for any values at or beyond the usual limits of such assays; details: source organism: Mycobacterium tuberculosis variant bovis BCG str. Pasteur 1173P2
PARAMETER: pKd
Lab note: report pKd as minus log10 of the concentration in molar units, number only.

Looking up `MAAVRTTAL` , I found its pKd recorded as 6.98

---

target: HLA-A*02:01; assay: IEDB peptide-MHC binding, purified MHC/direct/fluorescence; filed as Kd, often an IC50 or EC50 that approximates it; bounds were set here for any values at or beyond the usual limits of such assays; settings: source organism: Bacillus anthracis
PARAMETER: Kd

Summary for this sequence, `PRFGSCYFL` : Kd is ≥ 20 µM

Per the record, `VLRGNRQGL` has Kd of 4.46 µM

---

target: HLA-B*15:01; experiment: IEDB peptide-MHC binding, purified MHC/direct/fluorescence; filed as Kd, often an IC50 or EC50 that approximates it; bounds were set here for any values at or beyond the usual limits of such assays; details: source organism: Pseudomonas aeruginosa
PARAMETER: Kd

The observed Kd for `SPADERAVA` when tested with HLA-B*15:01 stands at ≥ 5 µM

---

Provide the recorded Kd for the entries that follow.
target: HLA-A*02:11; assay: IEDB peptide-MHC binding, purified MHC/direct/fluorescence; filed as Kd, often an IC50 or EC50 that approximates it; bounds were set here for any values at or beyond the usual limits of such assays; conditions: source organism: Bacillus cereus G9842

# Kd measured on HLA-A*02:11 for item `MFKNFPFFK` = ≥ 20 µM

Reported HLA-A*02:11 Kd for item `TQIPRQMVL` was ≥ 20 µM

---

molecular target: HLA-A*24:03; experiment: IEDB peptide-MHC binding, purified MHC/direct/fluorescence; filed as Kd, often an IC50 or EC50 that approximates it; bounds were set here for any values at or beyond the usual limits of such assays; conditions: source organism: Rickettsia bellii RML369-C
pKd: −log10 of the molar value.
PARAMETER: pKd

According to the records, this sequence `NPLEIYQEI` displays pKd of ≤ 4.70

---

target: HLA-A*02:01; test: IEDB peptide-MHC binding, purified MHC/direct/fluorescence; filed as Kd, often an IC50 or EC50 that approximates it; bounds were set here for any values at or beyond the usual limits of such assays; details: source organism: Vibrio parahaemolyticus
PARAMETER: pKd
Please note pKd is a logarithmic value: minus log10 of concentration in mol/L. Answer with that number alone.

// field: pKd; key: `FQLAAPSGF` ; value = 5.05

---

target: HLA-B*40:01; assay: IEDB peptide-MHC binding, purified MHC/competitive/fluorescence; filed as Kd, often an IC50 or EC50 that approximates it; bounds were set here for any values at or beyond the usual limits of such assays; conditions: source organism: Escherichia coli F11
PARAMETER: pKd
pKd is defined as minus the log10 of a concentration measured in mol/L.

The measured pKd that `LEPRVFGWM` showed for HLA-B*40:01 is 7.15

---

molecular target: HLA-B*18:01; experiment: IEDB peptide-MHC binding, purified MHC/direct/fluorescence; filed as Kd, often an IC50 or EC50 that approximates it; bounds were set here for any values at or beyond the usual limits of such assays; conditions: source organism: Burkholderia mallei
pKd: −log10 of the molar value.
PARAMETER: pKd

For `APAKKAAAK` the sequence record lists pKd as ≤ 4.70

`AVAVARVAA` has a reported pKd of ≤ 4.70

---

molecular target: HLA-A*02:01; assay: IEDB peptide-MHC binding, purified MHC/direct/fluorescence; filed as Kd, often an IC50 or EC50 that approximates it; bounds were set here for any values at or beyond the usual limits of such assays; conditions: source organism: Yellow fever virus
pKd: −log10 of the molar value.
PARAMETER: pKd

Just so you know, measured pKd for `EVRLATMLF` came out at ≤ 4.70

---

Assignment: determine reported pKd for the given sequences.
molecular target: HLA-A*01:01; assay: IEDB peptide-MHC binding, purified MHC/competitive/radioactivity; filed as Kd, often an IC50 or EC50 that approximates it; bounds were set here for any values at or beyond the usual limits of such assays; settings: source organism: Mammarenavirus juninense
Conceptually, pKd converts a concentration in mol/L into minus its log10.

Measured pKd, `VGEEFFHQY` : 5.48

Please fill in: pKd reported for `YCNYTKFWY` = 4.73

Form field pKd, entry `LAGLFIDAGY` : 5.79

---

target: HLA-A*31:01; test: IEDB peptide-MHC binding, purified MHC/competitive/radioactivity; filed as Kd, often an IC50 or EC50 that approximates it; bounds were set here for any values at or beyond the usual limits of such assays; conditions: source organism: Mammarenavirus whitewaterense
PARAMETER: pKd
For clarity, pKd is expressed as the negative log10 of concentration in mol/L.

So, `SSIIRSLPK` ? Its pKd was 5.76

---

target: HLA-B*15:17; assay: IEDB peptide-MHC binding, purified MHC/competitive/fluorescence; filed as Kd, often an IC50 or EC50 that approximates it; bounds were set here for any values at or beyond the usual limits of such assays; details: source organism: Rattus norvegicus
PARAMETER: Kd

Form: sequence = `FLRKNQRAL` ; Kd = ≥ 20 µM

---

target: HLA-A*29:02; assay: IEDB peptide-MHC binding, purified MHC/competitive/radioactivity; filed as Kd, often an IC50 or EC50 that approximates it; bounds were set here for any values at or beyond the usual limits of such assays; conditions: source organism: SARS coronavirus Tor2
PARAMETER: pKd
Note on pKd: it is the negative log10 of concentration, concentration in mol/L.

# pKd of `VDSSQGSEY` = 5.98

Measured pKd, `VYRGTTTYKL` : 6.67

The sequence `SASKSASVY` showed pKd equal to 5.30

Form field pKd, entry `VIEGPTTCGY` : 6.82

The sequence listed as `LFLAFVVFLL` has a reported pKd of 6.10

pKd reported for this sequence `SSLPSYAAY` : 8.83

response.value for `YFMKFRRVF` (field: pKd) = 4.90

// recorded pKd for `MFLARAIVF` : 5.07

Lab note: measured pKd of `AMDEFIQRY` was 6.05

The sequence `TEETFKLSY` showed pKd equal to 6.85

# sequence `RLSFKELLVY` ; its pKd = 7.06

Input `FNAPALQEAY` . Output pKd: 7.58

Reference for the values: the Immune Epitope Database (IEDB)
